Measured values drawn from patent US12624012B2 for this set.

Assay: In vitro NO release test (incubation with L-cysteine, OD at 550 nm)
Settings: 5 min; 100 μM solution with cysteine solution, 37° C.
Friendly reminder: NO-release concentrations below 9 µM is Met, at or above is Not met.

C=C[C@]1(C)CC[C@@H](C(=C)CN2CCC(COC(=O)CCCC(=O)OCCOc3no[n+]([O-])c3S(=O)(=O)c3ccccc3)CC2)C[C@H]1C(=C)CCl [Example 14] = Not met
C=C[C@]1(C)CC[C@@H](C(=C)CN(C)CCOC(=O)CCCC(=O)OCC#CCOc2no[n+]([O-])c2S(=O)(=O)c2ccccc2)C[C@H]1C(=C)CCl [Example 4] = Not met
C=C[C@]1(C)CC[C@@H](C(=C)CN(CCOC(=O)CCCC(=O)OCCOc2no[n+]([O-])c2S(=O)(=O)c2ccccc2)C(C)C)C[C@H]1C(=C)CCl [Example 6] = Met

Now look at this one.
Criterion: NO-release concentrations strictly below 9 µM. Is it met by C=C[C@]1(C)CC[C@@H](C(=C)CN(CCOC(=O)CCC(=O)OCCOc2no[n+]([O-])c2S(=O)(=O)c2ccccc2)C(C)C)C[C@H]1C(=C)CCl [Example 5] ?
Met

###

Tested on: U87MG
Assay: In vitro anti-tumor activity evaluation test (CCK-8), U87MG
Format: cell-based, human
Settings: Homo sapiens, U-87 MG; U87MG; 1 μM; 72 h; read-out: Inhibitory rates against tumor cell lines
Listed here are molecules together with their documented inhibition at 1 µM.
Put your answer as a value accompanied by its unit after it.

C=C[C@]1(C)CC[C@@H](C(=C)CN(C)CCOC(=O)CCC(=O)OCC#CCOc2no[n+]([O-])c2S(=O)(=O)c2ccccc2)C[C@H]1C(=C)CCl = 34.9%
C=C[C@]1(C)CC[C@@H](C(=C)CN2CCCC(COC(=O)CCCC(=O)OCC#CCOc3no[n+]([O-])c3S(=O)(=O)c3ccccc3)C2)C[C@H]1C(=C)CCl (some centres unmarked) = 53.9%
C=C[C@]1(C)CC[C@@H](C(=C)CN2CCCC(COC(=O)CCCC(=O)OCCOc3no[n+]([O-])c3S(=O)(=O)c3ccccc3)C2)C[C@H]1C(=C)CCl (some centres unmarked) = 48.3%
C=C[C@]1(C)CC[C@@H](C(=C)CN(C)CCOC(=O)CCCC(=O)OCC#CCOc2no[n+]([O-])c2S(=O)(=O)c2ccccc2)C[C@H]1C(=C)CCl = 55.5%

Notebook: `C=C[C@]1(C)CC[C@@H](C(=C)CN2CCN(CCOC(=O)CCC(=O)OCCOc3no[n+]([O-])c3S(=O)(=O)c3ccccc3)CC2)C[C@H]1C(=C)CCl` , inhibition at 1 µM read as 52.6%

###

Test: In vitro NO release test (incubation with L-cysteine, OD at 550 nm)
Conditions: 5 min; 100 μM solution with cysteine solution, 37° C.
measured endpoint: NO-release concentrations (µM)
Express your answer in µM, writing the number without its unit.

C=C[C@]1(C)CC[C@@H](C(=C)CN2CCN(CCOC(=O)CCC(=O)OCC#CCOc3no[n+]([O-])c3S(=O)(=O)c3ccccc3)CC2)C[C@H]1C(=C)CCl = 4.74
C=C[C@]1(C)CC[C@@H](C(=C)CN2CCCC(COC(=O)CCC(=O)OCCOc3no[n+]([O-])c3S(=O)(=O)c3ccccc3)C2)C[C@H]1C(=C)CCl (some centres unmarked) = 4.84
C=C[C@]1(C)CC[C@@H](C(=C)CN(C)CCOC(=O)CCC(=O)OCCOc2no[n+]([O-])c2S(=O)(=O)c2ccccc2)C[C@H]1C(=C)CCl = 1.73
C=C[C@]1(C)CC[C@@H](C(=C)CN2CCN(CCOC(=O)CCCC(=O)OCC#CCOc3no[n+]([O-])c3S(=O)(=O)c3ccccc3)CC2)C[C@H]1C(=C)CCl = 10.64

Now turn to the next compound.
For `C=C[C@]1(C)CC[C@@H](C(=C)CN2CC[C@H](OC(=O)CCC(=O)OCC#CCOc3no[n+]([O-])c3S(=O)(=O)c3ccccc3)C2)C[C@H]1C(=C)CCl` the compound record lists NO-release concentrations as 9.49

###

Test system: U87MG
Test: In vitro anti-tumor activity evaluation test (CCK-8), U87MG
Assay type: cell-based, human
Conditions: Homo sapiens, U-87 MG; U87MG; 1 μM; 72 h; read-out: Inhibitory rates against tumor cell lines
As shown below, each of these compounds has a reported inhibition at 1 µM value.
Give just the numeric value; % need not be written.

# annotated cases, reported inhibition at 1 µM shown
C=C[C@]1(C)CC[C@@H](C(=C)CN2CCC(OC(=O)CCCC(=O)OCC#CCOc3no[n+]([O-])c3S(=O)(=O)c3ccccc3)C2)C[C@H]1C(=C)CCl (some centres unmarked) = 47.8
C=C[C@]1(C)CC[C@@H](C(=C)CN2CC[C@H](OC(=O)CCC(=O)OCC#CCOc3no[n+]([O-])c3S(=O)(=O)c3ccccc3)C2)C[C@H]1C(=C)CCl = 42
C=C[C@]1(C)CC[C@@H](C(=C)CN(CCOC(=O)CCCC(=O)OCC#CCOc2no[n+]([O-])c2S(=O)(=O)c2ccccc2)C(C)C)C[C@H]1C(=C)CCl = 4.5

Short answer for `C=C[C@]1(C)CC[C@@H](C(=C)CN2CCC(COC(=O)CCC(=O)OCC#CCOc3no[n+]([O-])c3S(=O)(=O)c3ccccc3)CC2)C[C@H]1C(=C)CCl` : inhibition at 1 µM was 40.5

Just so you know, measured inhibition at 1 µM for `C=C[C@]1(C)CC[C@@H](C(=C)CN2CC[C@H](OC(=O)CCCC(=O)OCCOc3no[n+]([O-])c3S(=O)(=O)c3ccccc3)C2)C[C@H]1C(=C)CCl` came out at 53.1

###

Assay: In vitro NO release test (incubation with L-cysteine, OD at 550 nm)
Details: 20 min; 100 μM solution with cysteine solution, 37° C.
Assign labels as follows, please: criterion met for NO-release concentrations below 20 µM; criterion not met for NO-release concentrations equal to or exceeding 20 µM.

Please review the following examples before continuing.
C=C[C@]1(C)CC[C@@H](C(=C)CN2CCN(CCOC(=O)CCC(=O)OCCOc3no[n+]([O-])c3S(=O)(=O)c3ccccc3)CC2)C[C@H]1C(=C)CCl = criterion met
C=C[C@]1(C)CC[C@@H](C(=C)CN2CCC(COC(=O)CCC(=O)OCC#CCOc3no[n+]([O-])c3S(=O)(=O)c3ccccc3)CC2)C[C@H]1C(=C)CCl = criterion met
C=C[C@]1(C)CC[C@@H](C(=C)CN2CCC(OC(=O)CCCC(=O)OCC#CCOc3no[n+]([O-])c3S(=O)(=O)c3ccccc3)C2)C[C@H]1C(=C)CCl (some centres unmarked) = criterion not met
C=C[C@]1(C)CC[C@@H](C(=C)CN(CCOC(=O)CCCC(=O)OCC#CCOc2no[n+]([O-])c2S(=O)(=O)c2ccccc2)C(C)C)C[C@H]1C(=C)CCl = criterion met
C=C[C@]1(C)CC[C@@H](C(=C)CN2CCC(COC(=O)CCCC(=O)OCC#CCOc3no[n+]([O-])c3S(=O)(=O)c3ccccc3)CC2)C[C@H]1C(=C)CCl = criterion not met
C=C[C@]1(C)CC[C@@H](C(=C)CN2CCN(CCOC(=O)CCCC(=O)OCCOc3no[n+]([O-])c3S(=O)(=O)c3ccccc3)CC2)C[C@H]1C(=C)CCl = criterion met
C=C[C@]1(C)CC[C@@H](C(=C)CN(CCOC(=O)CCCC(=O)OCCOc2no[n+]([O-])c2S(=O)(=O)c2ccccc2)C(C)C)C[C@H]1C(=C)CCl = criterion met
C=C[C@]1(C)CC[C@@H](C(=C)CN2CC[C@H](OC(=O)CCCC(=O)OCCOc3no[n+]([O-])c3S(=O)(=O)c3ccccc3)C2)C[C@H]1C(=C)CCl = criterion met
C=C[C@]1(C)CC[C@@H](C(=C)CN2CC[C@H](OC(=O)CCC(=O)OCCOc3no[n+]([O-])c3S(=O)(=O)c3ccccc3)C2)C[C@H]1C(=C)CCl = criterion met

Consider the additional compound presented here.
Dear colleague, could you confirm whether NO-release concentrations of C=C[C@]1(C)CC[C@@H](C(=C)CN2CCCC(COC(=O)CCCC(=O)OCCOc3no[n+]([O-])c3S(=O)(=O)c3ccccc3)C2)C[C@H]1C(=C)CCl (some centres unmarked) falls below 20 µM? Thanks.
criterion met

###

Experiment: In vitro NO release test (incubation with L-cysteine, OD at 550 nm)
Conditions: 5 min; 100 μM solution with cysteine solution, 37° C.
measured endpoint: log10 NO-release concentrations (log10 of the value in µM)
The figures below represent log10 of NO-release concentrations, where NO-release concentrations is stated in µM.

Known results for molecules:
C=C[C@]1(C)CC[C@@H](C(=C)CN2CC[C@H](OC(=O)CCCC(=O)OCCOc3no[n+]([O-])c3S(=O)(=O)c3ccccc3)C2)C[C@H]1C(=C)CCl [Example 10] = 0.92
C=C[C@]1(C)CC[C@@H](C(=C)CN2CCN(CCOC(=O)CCCC(=O)OCCOc3no[n+]([O-])c3S(=O)(=O)c3ccccc3)CC2)C[C@H]1C(=C)CCl [Example 22] = -0.48
C=C[C@]1(C)CC[C@@H](C(=C)CN2CCC(COC(=O)CCC(=O)OCC#CCOc3no[n+]([O-])c3S(=O)(=O)c3ccccc3)CC2)C[C@H]1C(=C)CCl [Example 15] = 0.94

Entry C=C[C@]1(C)CC[C@@H](C(=C)CN(C)CCOC(=O)CCC(=O)OCC#CCOc2no[n+]([O-])c2S(=O)(=O)c2ccccc2)C[C@H]1C(=C)CCl [Example 3] — recorded log10 NO-release concentrations = 1.03

Summary for this molecule, C=C[C@]1(C)CC[C@@H](C(=C)CN2CCCC(COC(=O)CCC(=O)OCC#CCOc3no[n+]([O-])c3S(=O)(=O)c3ccccc3)C2)C[C@H]1C(=C)CCl (stereo partly drawn) [Example 19] : log10 NO-release concentrations is 1.14

Lookup result for C=C[C@]1(C)CC[C@@H](C(=C)CN(CCOC(=O)CCCC(=O)OCC#CCOc2no[n+]([O-])c2S(=O)(=O)c2ccccc2)C(C)C)C[C@H]1C(=C)CCl [Example 8] ; measured log10 NO-release concentrations: 1.02
